test: mitochondrial membrane potential change in A549 cells, profiling panel, cell-based, JC-1 fluorescence, basal, 24 h, 100 nL (AID 1138);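 also: A549 lung adenocarcinoma cells under basal conditions with no added stimulus; test concentration not given here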
condition.set: higher = more signal
quantity: z-score
Answers are plain numbers.

A selection of reference data follows.
{"columns": ["compound", "quantity", "observed.value"],
 "data": [
  ["COc1ccc(CCN2C(=O)[C@@]3(c4ccc([N+](=O)[O-])cc4)CC(=O)N(C4CCCCC4)[C@@H]3c3ccc(CO)cc32)cc1", "z-score", -0.552],
  ["O=C(NCc1ccccc1)[C@@H]1c2ccccc2C(=O)N(CC23CC4CC(CC(C4)C2)C3)[C@H]1c1ccc(CO)cc1", "z-score", 0.705],
  ["CN1C(=O)C2C=CC(C(O)Cc3ccccc3)N(Nc3ccccc3)C2C1=O (stereo not drawn)", "z-score", -0.375],
  ["C=CCOC(=O)[C@@H]1[C@H]2C(=O)O[C@H](c3ccccc3)[C@H](c3ccccc3)N2[C@H](c2ccc(OCCOC(=O)[C@@H]3C[C@@H]4C(=O)N[C@@H](CCCCN(C)C)C(=O)N4[C@@H]3c3ccc(O)cc3)cc2)[C@@]12C(=O)Nc1ccc(I)cc12", "z-score", -1.78],
  ["O=C1O[C@H](c2ccccc2)[C@H](c2ccccc2)N2[C@H]1[C@@H](C(=O)NC[C@H](O)c1ccccc1)[C@]1(C(=O)Nc3ccccc31)[C@H]2c1ccc(OCCO)cc1", "z-score", -0.253],
  ["[N-]=[N+]=Nc1ccccc1[C@H]1OC(c2ccc(OCCCO)cc2)=N[C@@]1(Cc1ccccc1)C(=O)O", "z-score", 0.384],
  ["C#CCNC(=O)[C@H](Cc1ccccc1)NC(=O)CCC(=O)O", "z-score", -0.68],
  ["O=C(O)[C@@]1(CCS(=O)(=O)c2ccccc2)COC(c2ccc(OCCCO)cc2)=N1", "z-score", -0.487],
  ["C=CCOC(=O)[C@H]1[C@@H]2C(=O)O[C@@H](c3ccccc3)[C@@H](c3ccccc3)N2[C@@H](c2ccc(OCCOC(=O)[C@H]3C[C@H]4C(=O)N5CCC[C@H]5C(=O)N4[C@H]3c3ccc(O)cc3)cc2)[C@]12C(=O)Nc1ccc(I)cc12", "z-score", -0.87],
  ["COc1ccc(CCNC(=O)[C@@H]2c3ccccc3C(=O)N(C3Cc4ccccc4C3)[C@H]2c2ccc(CO)cc2)cc1", "z-score", 0.997]
]}

Would you mind listing z-score for each of the following compounds?
1. C=C(C)C1C(=C)CN([C@H](CO)c2ccccc2)C1=O (stereo partly drawn)
2. COc1ccc(CCN2C(=O)[C@@]3(Cc4ccccc42)c2ccccc2C(=O)N(Cc2ccccc2C(F)(F)F)[C@H]3c2ccc(CO)cc2)cc1
3. CN1C(=O)C2C=CC(C(O)C3CCCCC3)N(Nc3ccc([N+](=O)[O-])cc3[N+](=O)[O-])C2C1=O (stereo not drawn)
4. COC(=O)[C@@]1(Cc2ccccc2)[C@H]2c3cc(C(=O)N4CCCC4)n(CC4CC4)c3C[C@H]2CN1C(=O)c1ccccc1
5. CN(C)CCCC[C@@H]1NC(=O)[C@H]2C[C@@H](C(=O)NCCCCCNC(=O)CS)[C@@H](c3cccc(OCCO)c3)N2C1=O
6. CCCN1C(=O)[C@]2(CCS(=O)(=O)c3ccccc3)N=C(c3ccc(OCCCO)cc3)O[C@@H]2c2ccccc21
7. CCOC(=O)C1=CCC(c2ccccc2)N(S(=O)(=O)CC[Si](C)(C)C)C1 (stereo not drawn)

result:
[-0.647, -0.963, 1.37, -0.641, 0.446, 0.535, 3.06]

Would you mind listing z-score for each of the following compounds?
1. CCCCC(=C=CC[C@@H](O)c1ccccc1OCCO)CCO
2. O=C1OCCC/C=C\[C@H]2OC34C=CCN(Cc5ccccc5)C(=O)[C@H]3N(CCCCCCO)C(=O)[C@@H]4C12 (stereo partly drawn)
3. CC(C)(C)OC(=O)CC[C@]12N=C(c3ccc(OCCCO)cc3)O[C@H]1c1ccccc1N(CCS(=O)(=O)c1ccccc1)C2=O
4. COC(=O)[C@@]1(Cc2ccc(OC)cc2)[C@H]2c3cc(C(=O)N4CCCC4)n(Cc4ccc(OC)c(OC)c4)c3C[C@H]2CN1C(=O)c1ccccc1
5. C=C(COC)/C(=C/C[C@H](OC(=O)c1ccncc1)c1ccc(OCCO)cc1)c1cnc2ccccc2c1

result:
[1.25, 1.59, 0.95, 1.58, -0.0174]

Would you mind listing z-score for each of the following compounds?
1. C=CCC(OC(C)=O)[C@@H]1[C@@H](N(Cc2ccc(-c3ccccc3)cc2)C(=O)Cc2ccc(F)cc2)c2cc(OCCCO)ccc2N1C(=O)c1ccc(-c2ccccc2)cc1 (stereo partly drawn)
2. O=C(NCC(F)(F)F)[C@@H]1c2ccccc2C(=O)N(C2CCCCC2)[C@H]1c1ccc(CO)cc1
3. COCCn1c(C(=O)N2CCCC2)cc2c1C[C@H]1CN(C(=O)c3ccccc3)[C@@](Cc3ccc(F)cc3)(C(=O)OC)[C@@H]21
4. CCOC(=O)C[C@H]1[C@H](OC(=O)Cc2ccc3c(c2)OCO3)[C@@H](NC(=O)c2ccc(-c3ccccc3)cc2)c2cc(OCCCO)ccc2N1C(=O)Cc1ccc(OC)cc1
5. CCOC(=O)[C@H]1C/C=C/C[C@H](C(=O)OCC)C(=O)O[C@H]2[C@@H](OC)O[C@H](CO)[C@@H](OC(=O)Nc3cccc(F)c3)[C@@H]2OC1=O
6. COCCOC(=O)N1C(=O)[C@@]2(c3cc(C#CC4=CCCCC4)ccc31)[C@H](C(=O)N1CCc3cc(OC)c(OC)cc3C1)[C@H]1C(=O)O[C@H](c3ccccc3)[C@H](c3ccccc3)N1[C@@H]2c1ccc(OCCO)cc1

result:
0.796
0.221
-0.328
1.24
-2.01
-1.21
